From: patent US4389408A

# Assay: in vitro
# Format: in vitro ADME
# Particulars: simulated intestinal juice, pH 7.5
Where a name gives a salt, the structure may show the parent alone.
Catalogue of metabolised at 1 h values
Write the number in % without appending the unit.

Noted for Cc1oc(=O)oc1COC(=O)[C@@H]1N2C(=O)[C@@H](NC(=O)[C@H](N)c3ccccc3)[C@H]2SC1(C)C [A, hydrochloride] : its metabolised at 1 h reads 80

Quick note, metabolised at 1 h for CC1(C)S[C@@H]2[C@H](NC(=O)[C@H](N)c3ccccc3)C(=O)N2[C@H]1C(=O)OC1OC(=O)c2ccccc21 (stereo partly drawn) [C, hydrochloride, reference compound] landed at 100

Data point: CC1(C)S[C@@H]2[C@H](NC(=O)[C@H](N)c3ccccc3)C(=O)N2[C@H]1C(=O)OCc1oc(=O)oc1-c1ccccc1 [B, hydrochloride] ; metabolised at 1 h = 90

----------
# Assay: in vitro
# Format: in vitro ADME
# Particulars: simulated gastric juice, pH 1.2
Counter-ions that a name gives are not always drawn.
Reported property: metabolised at 4 h (%)
Write the number in % without appending the unit.

# annotated cases, reported metabolised at 4 h shown
- Molecule: "CC1(C)S[C@@H]2[C@H](NC(=O)[C@H](N)c3ccccc3)C(=O)N2[C@H]1C(=O)OCc1oc(=O)oc1-c1ccccc1 [B, hydrochloride]"
  Unit spec: "%"
  metabolised at 4 h: 30
- Molecule: "CC1(C)S[C@@H]2[C@H](NC(=O)[C@H](N)c3ccccc3)C(=O)N2[C@H]1C(=O)OC1OC(=O)c2ccccc21 (stereo partly drawn) [C, hydrochloride, reference compound]"
  Unit spec: "%"
  metabolised at 4 h: 43

Here is the next item to consider.
Data point: Cc1oc(=O)oc1COC(=O)[C@@H]1N2C(=O)[C@@H](NC(=O)[C@H](N)c3ccccc3)[C@H]2SC1(C)C [A, hydrochloride] ; metabolised at 4 h = 20

----------
# Assay: in vivo
# Particulars: mouse, ip, intraperitoneal, mice, aqueous solution
Structures can show the parent of a compound that is named as a salt.
Reported property: LD50 (mg/kg)
Note: unit mg/kg is implicit; provide only the numeric part.

Sample CC1(C)S[C@@H]2[C@H](NC(=O)[C@H](N)c3ccccc3)C(=O)N2[C@H]1C(=O)OCc1oc(=O)oc1-c1ccccc1 [B, hydrochloride] ; LD50 observed: 1770

----------
# Assay: in vitro
# Format: in vitro ADME
# Particulars: simulated gastric juice, pH 1.2
Where a name gives a salt, the structure may show the parent alone.
Reported property: metabolised at 1 h (%)
Report the value in % with no unit label.

Worked examples, 2 compounds total:
- Compound: "CC1(C)S[C@@H]2[C@H](NC(=O)[C@H](N)c3ccccc3)C(=O)N2[C@H]1C(=O)OCc1oc(=O)oc1-c1ccccc1 [B, hydrochloride]"
  metabolised at 1 h / %: 9
- Compound: "CC1(C)S[C@@H]2[C@H](NC(=O)[C@H](N)c3ccccc3)C(=O)N2[C@H]1C(=O)OC1OC(=O)c2ccccc21 (stereo partly drawn) [C, hydrochloride, reference compound]"
  metabolised at 1 h / %: 18

Would you kindly look at the next entry?
In plain terms, Cc1oc(=O)oc1COC(=O)[C@@H]1N2C(=O)[C@@H](NC(=O)[C@H](N)c3ccccc3)[C@H]2SC1(C)C [A, hydrochloride] has a documented metabolised at 1 h of 7
